- TARGET DESC: fully phosphorylated, active Mouse ERK2 protein (Mus musculus, UniProt P63085)
- Sequence (P63085 whole entry): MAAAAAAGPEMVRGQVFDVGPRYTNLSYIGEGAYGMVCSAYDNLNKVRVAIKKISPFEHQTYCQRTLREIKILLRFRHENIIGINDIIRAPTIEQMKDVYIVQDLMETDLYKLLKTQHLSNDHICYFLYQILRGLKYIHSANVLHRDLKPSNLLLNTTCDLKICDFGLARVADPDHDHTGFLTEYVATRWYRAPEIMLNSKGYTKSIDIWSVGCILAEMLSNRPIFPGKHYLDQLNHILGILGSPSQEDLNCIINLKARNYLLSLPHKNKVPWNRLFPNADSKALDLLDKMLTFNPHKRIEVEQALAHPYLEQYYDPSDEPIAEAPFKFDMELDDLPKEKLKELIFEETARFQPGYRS
- TEST DETAILS: Active ERK2 assay (AERK2), IMAP format
- EXPERIMENTAL CONTEXT: activated ERK2, IMAP fluorescence polarization, 30 μM ATP
RECORDED ENDPOINT: IC50

Would you please look over these solved cases?
>  <COMPOUND>
Fc1cccc(F)c1CN1CCC[C@@H](c2cn(-c3ccc4[nH]nc(-c5ccnc6[nH]ccc56)c4c3)nn2)C1 [Example 248]

>  <TARGET DESC>
fully phosphorylated, active Mouse ERK2 protein (Mus musculus, UniProt P63085)

>  <RECORDED ENDPOINT>
IC50

>  <OBS VALUE>
≥ 504 nM

$$$$
>  <COMPOUND>
Fc1ccccc1CN1CCCC(c2nnc(-c3ccc4[nH]nc(-c5ccncc5)c4c3)o2)C1 (stereo not drawn) [Example 306]

>  <TARGET DESC>
fully phosphorylated, active Mouse ERK2 protein (Mus musculus, UniProt P63085)

>  <RECORDED ENDPOINT>
IC50

>  <OBS VALUE>
0.3 to 10.4 nM

$$$$
>  <COMPOUND>
Clc1cc(-c2n[nH]c3ccc(-c4nnc([C@@H]5CCCN(Cc6cc7ccccc7o6)C5)o4)cc23)ccn1 [Example 357]

>  <TARGET DESC>
fully phosphorylated, active Mouse ERK2 protein (Mus musculus, UniProt P63085)

>  <RECORDED ENDPOINT>
IC50

>  <OBS VALUE>
≥ 504 nM

$$$$
>  <COMPOUND>
CCn1cc(-c2n[nH]c3ccc(-c4nnc([C@@H]5CCCN(Cc6cn(C)c7ccccc67)C5)o4)cc23)cn1 [Example 341]

>  <TARGET DESC>
fully phosphorylated, active Mouse ERK2 protein (Mus musculus, UniProt P63085)

>  <RECORDED ENDPOINT>
IC50

>  <OBS VALUE>
> 1000 nM

$$$$
>  <COMPOUND>
c1csc(CN2CCC[C@@H](c3nc(-c4ccc5[nH]nc(-c6ccc7c(c6)CCO7)c5c4)n[nH]3)C2)c1 [Example 298]

>  <TARGET DESC>
fully phosphorylated, active Mouse ERK2 protein (Mus musculus, UniProt P63085)

>  <RECORDED ENDPOINT>
IC50

>  <OBS VALUE>
≥ 504 nM

$$$$

Note: attention shifts to another entry.
Supply recorded IC50 for C1=CCN(Cc2ccon2)[C@@H](c2nc(-c3ccc4[nH]nc(-c5ccc6c(c5)CCO6)c4c3)n[nH]2)C1 [Example 256] here. ≥ 504 nM

* * *

- TARGET DESC: fully phosphorylated, active Mouse ERK2 protein (Mus musculus, UniProt P63085)
- TEST DETAILS: Active ERK2 assay (AERK2), IMAP format
- EXPERIMENTAL CONTEXT: activated ERK2, IMAP fluorescence polarization, 30 μM ATP
RECORDED ENDPOINT: IC50

>  <COMPOUND>
COc1cccc(F)c1CN1CCOC(c2cn(-c3ccc4[nH]nc(-c5ccncc5)c4c3)nn2)C1 (stereo not shown)

>  <IC50>
0.3 to 10.4 nM

$$$$
>  <COMPOUND>
c1cc2cc(-c3n[nH]c4ccc(-c5nnc([C@@H]6CCCN(CC7CCCCC7)C6)o5)cc34)ccc2o1

>  <IC50>
> 1000 nM

$$$$
>  <COMPOUND>
Clc1cc(-c2n[nH]c3ccc(-c4nnc([C@@H]5CCCN(Cc6ccncn6)C5)o4)cc23)ccn1

>  <IC50>
≥ 504 nM

$$$$
>  <COMPOUND>
c1ccc(CN2CCCC(c3nnc(-c4ccc5[nH]nc(-c6ccc7c(c6)CCO7)c5c4)o3)C2)cc1 (stereo not shown)

>  <IC50>
> 1000 nM

$$$$
>  <COMPOUND>
Clc1cc(-c2n[nH]c3ccc(-c4nnc(C5CCCN(Cc6ccccc6)C5)o4)cc23)ccn1 (stereo not shown)

>  <IC50>
> 1000 nM

$$$$

Supply recorded IC50 for Clc1cc(-c2n[nH]c3ccc(-c4nnc([C@@H]5CCCN(Cc6cc7ccccc7s6)C5)o4)cc23)ccn1 here. ≥ 504 nM

Supply recorded IC50 for COc1cccc(F)c1CN1CCCCC1c1nc(-c2ccc3[nH]nc(-c4ccc(OC(C)C)cc4)c3c2)n[nH]1 (stereo not shown) here. > 1000 nM

Supply recorded IC50 for Cc1noc(C)c1-c1n[nH]c2ccc(-c3n[nH]c([C@@H]4CCCN(Cc5c(F)cccc5F)C4)n3)cc12 here. ≥ 504 nM

* * *

- TARGET DESC: fully phosphorylated, active Mouse ERK2 protein (Mus musculus)
- TEST DETAILS: Active ERK2 assay (AERK2), IMAP format
- EXPERIMENTAL CONTEXT: activated ERK2, IMAP fluorescence polarization, 30 μM ATP
RECORDED ENDPOINT: IC50

Would you please look over these solved cases?
>  <COMPOUND>
COc1cccc(F)c1CN1CCC[C@@H](c2nnc(-c3ccc4[nH]nc(-c5ccc6nn(C)cc6c5)c4c3)o2)C1

>  <TARGET DESC>
fully phosphorylated, active Mouse ERK2 protein (Mus musculus)

>  <IC50>
0.0003 to 0.0104 µM

$$$$
>  <COMPOUND>
COc1cccc(F)c1CN1CCCCC1c1nc(-c2ccc3[nH]nc(-c4ccc5c(c4)CCO5)c3c2)n[nH]1 (centres unmarked)

>  <TARGET DESC>
fully phosphorylated, active Mouse ERK2 protein (Mus musculus)

>  <IC50>
> 1 µM

$$$$
>  <COMPOUND>
COc1cccc(CN2CCC[C@@H](c3nnc(-c4ccc5[nH]nc(-c6ccnc(Cl)c6)c5c4)o3)C2)n1

>  <TARGET DESC>
fully phosphorylated, active Mouse ERK2 protein (Mus musculus)

>  <IC50>
≥ 0.504 µM

$$$$
>  <COMPOUND>
CC(=O)Nc1cc(-c2n[nH]c3ccc(-c4nnc([C@@H]5CCCN(Cc6ccc7nccnc7c6)C5)o4)cc23)ccc1O

>  <TARGET DESC>
fully phosphorylated, active Mouse ERK2 protein (Mus musculus)

>  <IC50>
≥ 0.504 µM

$$$$

Note: attention shifts to another entry.
Supply recorded IC50 for Fc1cccc(F)c1CN1CCC[C@@H](c2nc(-c3ccc4[nH]nc(-c5ccnc(F)c5F)c4c3)n[nH]2)C1 here. ≥ 0.504 µM

* * *

- TARGET DESC: fully phosphorylated, active Mouse ERK2 protein (Mus musculus, UniProt P63085)
- TEST DETAILS: Active ERK2 assay (AERK2), IMAP format
- EXPERIMENTAL CONTEXT: activated ERK2, IMAP fluorescence polarization, 30 μM ATP
Item-by-item account of IC50

Would you please look over these solved cases?
>  <COMPOUND>
c1ccc2oc(CN3CCC[C@@H](c4nnc(-c5ccc6[nH]nc(-c7ccc8occc8c7)c6c5)o4)C3)cc2c1

>  <TARGET DESC>
fully phosphorylated, active Mouse ERK2 protein (Mus musculus, UniProt P63085)

>  <OBS VALUE>
> 1000 nM

$$$$
>  <COMPOUND>
Cn1cc2cc(-c3n[nH]c4ccc(-c5nnc([C@@H]6CCCN(Cc7cc8ccccc8n7C)C6)o5)cc34)ccc2n1

>  <TARGET DESC>
fully phosphorylated, active Mouse ERK2 protein (Mus musculus, UniProt P63085)

>  <OBS VALUE>
> 1000 nM

$$$$
>  <COMPOUND>
Cn1c(CN2CCC[C@@H](c3nnc(-c4ccc5[nH]nc(-c6ccc7nccn7c6)c5c4)o3)C2)cc2ccccc21

>  <TARGET DESC>
fully phosphorylated, active Mouse ERK2 protein (Mus musculus, UniProt P63085)

>  <OBS VALUE>
> 1000 nM

$$$$
>  <COMPOUND>
Clc1cc(-c2n[nH]c3ccc(-c4nnc([C@@H]5CCCN(Cc6csc7ccccc67)C5)o4)cc23)ccn1

>  <TARGET DESC>
fully phosphorylated, active Mouse ERK2 protein (Mus musculus, UniProt P63085)

>  <OBS VALUE>
> 1000 nM

$$$$
>  <COMPOUND>
CC(C)Oc1ccc(-c2n[nH]c3ccc(-c4n[nH]c([C@@H]5CCCN(Cc6cccs6)C5)n4)cc23)cc1

>  <TARGET DESC>
fully phosphorylated, active Mouse ERK2 protein (Mus musculus, UniProt P63085)

>  <OBS VALUE>
≥ 504 nM

$$$$

Param request: IC50 | system fully phosphorylated, active Mouse ERK2 protein (Mus musculus, UniProt P63085) | item CCn1cc(-c2n[nH]c3ccc(-c4nnc([C@@H]5CCCN(Cc6csc7ccccc67)C5)o4)cc23)cn1 > 1000 nM

Param request: IC50 | system fully phosphorylated, active Mouse ERK2 protein (Mus musculus, UniProt P63085) | item CCn1cc(-c2n[nH]c3ccc(-c4nnc([C@@H]5CCCN(Cc6cc7ccccc7n6C)C5)o4)cc23)cn1 > 1000 nM

Param request: IC50 | system fully phosphorylated, active Mouse ERK2 protein (Mus musculus, UniProt P63085) | item COc1cccc(F)c1CN1CCC[C@@H](c2nnc(-c3ccc4[nH]nc(-c5ccc6occc6c5)c4c3)o2)C1 ≥ 504 nM

Param request: IC50 | system fully phosphorylated, active Mouse ERK2 protein (Mus musculus, UniProt P63085) | item CC(C)Sc1ccc(-c2n[nH]c3ccc(-c4n[nH]c([C@@H]5CCCN(Cc6c(F)cccc6F)C5)n4)cc23)cc1 ≥ 504 nM

Param request: IC50 | system fully phosphorylated, active Mouse ERK2 protein (Mus musculus, UniProt P63085) | item Fc1ccccc1CN1CCC[C@@H](c2nnc(-c3ccc4[nH]nc(-c5ccnc(Cl)c5)c4c3)o2)C1 ≥ 504 nM

Param request: IC50 | system fully phosphorylated, active Mouse ERK2 protein (Mus musculus, UniProt P63085) | item Fc1cccc(F)c1CN1CCC[C@@H](c2nc(-c3ccc4[nH]nc(-c5ccc(C(F)(F)F)cc5)c4c3)n[nH]2)C1 ≥ 504 nM

Param request: IC50 | system fully phosphorylated, active Mouse ERK2 protein (Mus musculus, UniProt P63085) | item CC1(C)Cc2cc(-c3n[nH]c4ccc(-c5n[nH]c([C@@H]6CCCN(Cc7c(F)cccc7F)C6)n5)cc34)ccc2O1 ≥ 504 nM

Param request: IC50 | system fully phosphorylated, active Mouse ERK2 protein (Mus musculus, UniProt P63085) | item Fc1cc(CN2CCC[C@@H](c3nnc(-c4ccc5[nH]nc(-c6ccnc(Cl)c6)c5c4)o3)C2)c(Cl)cc1Cl ≥ 504 nM

These entries and their values trace back to patent US8999966B2.
